# assaySystem: Endothelin-1 receptor (Rattus norvegicus)
# Sequence (P26684 whole entry): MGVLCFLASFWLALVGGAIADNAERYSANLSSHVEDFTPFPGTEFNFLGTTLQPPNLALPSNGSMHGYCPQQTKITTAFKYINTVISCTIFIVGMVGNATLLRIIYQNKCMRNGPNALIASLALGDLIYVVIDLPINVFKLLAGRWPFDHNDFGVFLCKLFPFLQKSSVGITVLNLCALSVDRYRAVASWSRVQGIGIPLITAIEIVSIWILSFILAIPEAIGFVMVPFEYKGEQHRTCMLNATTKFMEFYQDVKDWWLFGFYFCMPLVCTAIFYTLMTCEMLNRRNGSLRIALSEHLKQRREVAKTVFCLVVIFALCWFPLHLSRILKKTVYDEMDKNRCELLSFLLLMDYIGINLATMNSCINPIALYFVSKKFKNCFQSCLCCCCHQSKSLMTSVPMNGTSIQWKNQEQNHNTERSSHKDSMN
# experimentDescription: Binding affinity towards endothelin A receptor in prolactin secreting rat pituitary cells using [125I]ET1 as radioligand.
// reported IC50 for each item listed
measurementType: IC50 (nM)

> print(dat)
                                 smilesentry                               assaysystem  datavalue
 1  CCCCN(CCCC)C(=O)CN1C[C@H](c2ccc3c(c2)CCC3)[C@@H](C(=O)O)[C@@H]1c1ccc(OC)cc1  Endothelin-1 receptor (Rattus norvegicus)        1.5
 2  CCCCN(CCCC)C(=O)CN1C[C@H](c2ccc(F)cc2)[C@@H](C(=O)O)[C@@H]1c1ccc(OC)cc1  Endothelin-1 receptor (Rattus norvegicus)         14
 3  CCCCN(CCCC)C(=O)CN1C[C@H](c2ccc(OC)cc2)[C@@H](C(=O)O)[C@@H]1c1ccc(OC)cc1  Endothelin-1 receptor (Rattus norvegicus)        1.3
 4  CCCN(C)C(=O)CN1C[C@H](c2ccc(F)c(F)c2)[C@@H](C(=O)O)[C@@H]1c1ccc(OC)cc1  Endothelin-1 receptor (Rattus norvegicus)        310
 5  CCCCN(CCCC)C(=O)CN1C[C@H](c2ccc3occc3c2)[C@@H](C(=O)O)[C@@H]1c1ccc(OC)cc1  Endothelin-1 receptor (Rattus norvegicus)        0.5
 6  CCCCN(CCCC)C(=O)CN1C[C@H](c2ccc(F)c(F)c2)[C@@H](C(=O)O)[C@@H]1c1ccc(OC)cc1  Endothelin-1 receptor (Rattus norvegicus)        1.5
 7  CCCN(C)C(=O)CN1C[C@H](c2ccc3c(c2)OCC3)[C@@H](C(=O)O)[C@@H]1c1ccc(OC)cc1  Endothelin-1 receptor (Rattus norvegicus)        137
 8  CCCN(C)C(=O)CN1C[C@H](c2ccc3c(c2)OCCO3)[C@@H](C(=O)O)[C@@H]1c1ccc(OC)cc1  Endothelin-1 receptor (Rattus norvegicus)        130
 9  CCCCN(CCCC)C(=O)CN1C[C@H](c2ccc3c(c2)OCC3)[C@@H](C(=O)O)[C@@H]1c1ccc(OC)cc1  Endothelin-1 receptor (Rattus norvegicus)          1
10  CCCN(C)C(=O)CN1C[C@H](c2ccc3ccoc3c2)[C@@H](C(=O)O)[C@@H]1c1ccc(OC)cc1  Endothelin-1 receptor (Rattus norvegicus)        258
